Reported GI50 values for the following molecules.
- System: SNB-75
- Assay Overview: NCI tumour cell line growth inhibition, 48 h
The source made the active and inactive calls. Cut-off read from the data, not from the text of the source: active = GI50 up to about 1.1 µM and inactive = higher. Square brackets hold non-standard residues; d marks the D form. Peptide text beside a SMILES is read from it. Ac5c = NC1(C(=O)O)CCCC1
Endpoint Label: GI50

>>> value_reported("CCOc1cc(C2SCC(=O)N2c2nc3cc4sc(N5C(=O)CSC5c5ccc(O)c(OCC)c5)nc4cc3s2)ccc1O (stereo not given)")
"> 100 µM (inactive)"
>>> value_reported("CC(N)(Cc1c[nH]c2ccccc12)C(=O)O (stereo not given)")
"> 100 µM (inactive)"
>>> value_reported("O=C1Oc2cc(O)cc(/C=C/c3ccc(O)cc3)c2[C@@]12c1c(O)cc(O)cc1OC2c1cccc(O)c1 (stereo not given in full)")
"52.2 µM (inactive)"
>>> value_reported("CCOC(=O)NNC(=O)NCc1ccccc1CNC(=O)NNC(=O)OCC")
"> 100 µM (inactive)"
>>> value_reported("NCC(=O)NC1(C(=O)O)CCCC1 (H-Gly-[Ac5c]-OH)")
"> 100 µM (inactive)"

Cited source: ChEMBL document CHEMBL1201862
